tested-system: Genome polyprotein (Dengue virus type 2 (strain 16681-PDK53)) (UniProt P29991)
assay-protocol: flavivirus cap methylation enzyme inhibition – biochemical, confirmation dose response, primary screen (AID 588689)
measurement-setup: Dengue-2 NS5 methyltransferase capping enzyme assay, at 25 µM, hits give high values
The whole screen tested about 340,000 compounds, of which about 1,000 (0.29%) were called active. Only a sample is shown. Potency and affinity values are given separately.
Recorded inhibition values for a group of compounds are listed next.
// return numeric value only (unit: %, not printed)

• CCN(Cc1ccccc1)C(=O)c1ccc(C(=O)N(CC)Cc2ccccc2)cc1 = -1.55
• O=C(NCCCN1CCOCC1)c1ccc(S(=O)(=O)Nc2ccccc2)cc1 = -4.34
• CC1=NN(c2ccccc2)C(=O)C1N=Nc1ccc(S(N)(=O)=O)cc1 (centres undefined) = -3.93
• CCN(CC)Cc1nc2c(c(=O)[nH]1)C1(CCCCC1)Cc1ccccc1-2 = -5.55
• CC(C)(C)OC(=O)C[C@H]1C/C=C\C[C@@H](CC(=O)N(CCO)Cc2ccccc2)C(=O)N[C@@H](Cc2ccccc2)COC1=O = 1.65

Request: Could you tell me which inhibition is on file for `CN(C)c1cccc2c1C(=O)c1ccccc1C2=O` ?
Response: 2.91

Request: What do you have for `C[C@H](NC(=O)c1nc[nH]c1C(=O)NCCCCCN)C(=O)OCc1ccccc1` ?
Response: 1.59

Request: What do you have for `COc1ccc(NC(=O)CCCc2ccccc2)cc1OC` ?
Response: -7.95

Request: What do you have for `Cc1nc(SCC(=O)N2c3ccccc3Sc3ccccc32)n[nH]1` ?
Response: -1.38

Request: What do you have for `CC(=O)Nc1ccc(N2CCCCC2)c(C(=O)Nc2cccc(C)c2)c1` ?
Response: 1.3

Request: What do you have for O=C(CN1C(=O)C2CCCCC2C1=O)OCC(=O)c1ccc(Cl)s1 (centres undefined) ?
Response: -7.27

Request: What do you have for CCC(=O)N1c2ccccc2-c2nnc(SC)nc2OC1c1ccc(N(C)C)cc1 (centres undefined) ?
Response: -7.25

Request: What do you have for `COC(=O)c1ccccc1-c1ccc(/C=C2\C(=O)N(c3ccccc3)N=C2c2ccccc2)o1` ?
Response: 1.6

Request: What do you have for `CC(C)CN(C(=O)CCCSc1nc2ccccc2[nH]1)c1c(N)n(Cc2ccccc2)c(=O)[nH]c1=O` ?
Response: 2.91

Request: What do you have for CC1=C(C(=O)Nc2cccc(C(=O)NC(C)c3ccccc3)c2)SCCO1 (centres undefined) ?
Response: -4.13

Request: What do you have for `CN(CCO)C(=O)c1cccc2c1-c1ccccc1C2=O` ?
Response: 2.07

Request: What do you have for `N#Cc1ccc2ccn(CC(=O)NCc3ccco3)c2c1` ?
Response: -5.46

Request: What do you have for `CC(C)[C@H](NC(=O)c1c(F)cccc1F)C(=O)OCC(=O)NNC(=O)c1ccccc1` ?
Response: -2.88

Request: What do you have for O=C(CC(c1ccccc1)c1cc(Br)ccc1O)N1CCCC1 (centres undefined) ?
Response: -0.78

Request: What do you have for `COCCNc1nc2ccccc2n2cnnc12` ?
Response: -9.27

Request: What do you have for `CC1=NN(c2ccc(C(=O)O)cc2)C(=O)/C1=C/c1ccc(-c2ccccc2F)o1` ?
Response: 51.9

Request: What do you have for CCOC(=O)c1c(NC(=O)C2C3CCC(O3)C2C(=O)O)sc2c1CCC(CC)C2 (centres undefined) ?
Response: 4.42

Request: What do you have for `COC1=CC(=O)c2ccccc2C1=O` ?
Response: 0.72

Request: What do you have for `CC(C)CCCN1C(Nc2ccccc2)=NC[C@@H]1C` ?
Response: -8.02

Request: What do you have for `CCOC(=O)c1[nH]c2ccccc2c1NC(C)=O` ?
Response: 1.39

Request: What do you have for `COc1ccccc1/C(C)=N/NC(=O)c1nnn(-c2nonc2N)c1C(C)C` ?
Response: -2.62

Request: What do you have for `O=C(CSc1nnc(-c2ccccc2)n1-c1ccccc1)N1c2ccccc2Sc2ccccc21` ?
Response: -3.27

* * *

Recorded inhibition values for a group of molecules are listed next.
tested-system: Genome polyprotein (Dengue virus type 2 (strain 16681-PDK53))
assay-protocol: flavivirus cap methylation enzyme inhibition – biochemical, confirmation dose response, primary screen (AID 588689)
measurement-setup: Dengue-2 NS5 methyltransferase capping enzyme assay, at 25 µM, hits give high values
In all, about 340,000 compounds went through this assay and about 1,000 (0.29%) were called active. A selection follows. Results with a measured potency or affinity are listed apart.

Below, 4 molecules whose answers are already recorded.
- O=C(Nc1ncccc1O)c1ccc2c(c1)OCO2: 0.74% (inactive)
- Cc1ccc(CC2SC(N)=NC2=O)cc1 (stereo unspecified): 0% (inactive)
- COc1ccc(OCC(=O)N2CCCC2=O)c([N+](=O)[O-])c1: 0.65% (inactive)
- O=C(CNC(=O)c1cccs1)Nc1ccncc1: 1.47% (inactive)

Request: Could you tell me which inhibition is on file for CCC(OC(=O)c1nsc(Cl)c1Cl)C(=O)NCC1CCCO1 (stereo unspecified) ?
Response: -4.98% (inactive)

Request: What do you have for `Cc1ccc2nc(SCn3nnc4ccccc4c3=O)[nH]c2c1` ?
Response: -4.53% (inactive)

* * *

tested-system: Genome polyprotein (Dengue virus type 2 (strain 16681-PDK53))
assay-protocol: flavivirus cap methylation enzyme inhibition – biochemical, confirmation dose response, primary screen (AID 588689)
measurement-setup: Dengue-2 NS5 methyltransferase capping enzyme assay, at 25 µM, hits give high values
Hit rate of the full screen: of about 340,000 compounds, about 1,000 (0.29%) were called active. Not all results are given here. Measured potencies and affinities stand elsewhere.
Recorded inhibition values for a group of compounds are listed next.

Below, 4 compounds whose answers are already recorded.
* Cc1[nH]n(-c2ccccc2)c(=O)c1C(C[N+](=O)[O-])c1ccc(F)cc1 (stereo not given) | 1.46% (inactive)
* Cc1[nH]n(-c2ccccc2)c(=O)c1N=Nc1ccccc1C(=O)N1CCOCC1 | -1.82% (inactive)
* Cc1ccnc(N2CCC(C(=O)Nc3ccc4c(c3)CCC4)CC2)n1 | -1.37% (inactive)
* Cc1c(C(c2ccc(C(=O)O)cc2)c2c(C)n(C)n(-c3ccccc3)c2=O)c(=O)n(-c2ccccc2)n1C | -3.92% (inactive)

Switching to the query record.
Request: Could you tell me which inhibition is on file for `Cc1c(C(c2cccc(O)c2)c2c(C)n(C)n(-c3ccccc3)c2=O)c(=O)n(-c2ccccc2)n1C` ?
Response: 0.66% (inactive)

* * *

tested-system: Genome polyprotein (Dengue virus type 2 (strain 16681-PDK53))
assay-protocol: flavivirus cap methylation enzyme inhibition – biochemical, confirmation dose response, primary screen (AID 588689)
measurement-setup: Dengue-2 NS5 methyltransferase capping enzyme assay, at 25 µM, hits give high values
Out of some 340,000 compounds screened, about 1,000 (0.29%) were called active. The list is a sample of the results. Measured potencies and affinities stand elsewhere.
Recorded inhibition values for a group of compounds are listed next.

Below, 5 compounds whose answers are already recorded.
- CCCCOC(=O)c1ccc(NC(=O)C(=O)NCc2cccnc2)cc1: -1.56% (inactive)
- N=C1c2ccccc2CN1NC(=O)CC12CC3CC(CC(C3)C1)C2: -6.39% (inactive)
- CCn1ccc2c(OCC(=O)NCCc3ccc(OC)c(OC)c3)cccc2c1=O: -3.6% (inactive)
- Cc1cc(C(=O)CSc2nnc(N)s2)c(C)n1Cc1ccco1: -12.5% (inactive)
- N/C(=N\OC(=O)CCC1CCCCC1)c1cccc([N+](=O)[O-])c1: -1.88% (inactive)

Request: Could you tell me which inhibition is on file for `Oc1ccc(CN2CCCCC2)nc1-c1ccccc1` ?
Response: -3.27% (inactive)

* * *

tested-system: Genome polyprotein (Dengue virus type 2 (strain 16681-PDK53)) (UniProt P29991)
assay-protocol: flavivirus cap methylation enzyme inhibition – biochemical, confirmation dose response, primary screen (AID 588689)
measurement-setup: Dengue-2 NS5 methyltransferase capping enzyme assay, at 25 µM, hits give high values
Screen size: about 340,000 compounds; about 1,000 (0.29%) were called active. The list is a sample of the results. Results with a measured potency or affinity are listed apart.
Recorded inhibition values for a group of molecules are listed next.
// return numeric value only (unit: %, not printed)

- Cc1ccc(/C=N/NC(=O)C(C)Oc2cccc3ccccc23)o1 (configuration not stated): -3.22
- NS(=O)(=O)c1ccc(CCNC(=O)CCNS(=O)(=O)c2ccccc2C(F)(F)F)cc1: 0
- COc1ccc(S(=O)(=O)N2CCOCC2)cc1NC(=O)COC(=O)C1CC1C (configuration not stated): -7.51

Request: Please tell me: inhibition of `CN=c1scc(-c2ccccc2F)n1/N=C/c1ccc(O)c(O)c1O` , system Genome polyprotein (Dengue virus type 2 (strain 16681-PDK53)) (UniProt P29991)?
Response: 26.9

Request: What do you have for `CC1=NN(c2ccc([N+](=O)[O-])cc2)C(=O)/C1=C\N(C)C` ?
Response: -9.46

Request: What do you have for `COCCNC(=O)CN1C(=O)CSc2ccc(S(=O)(=O)N3CCOCC3)cc21` ?
Response: 0.89

Request: What do you have for O=C(CCN1C(=O)C2CC=CCC2C1=O)Nc1cccc(S(=O)(=O)N2CCCCC2)c1 (configuration not stated) ?
Response: 0

Request: What do you have for `CN1C(=O)/C(=C\c2cccc(OCc3ccccc3)c2)SC1=S` ?
Response: 5.28

Request: What do you have for `O=C(c1ccccc1)c1ccc(Oc2ccc([N+](=O)[O-])cc2[N+](=O)[O-])cc1` ?
Response: -2.33

Request: What do you have for `O=c1c2c([N+](=O)[O-])cc([N+](=O)[O-])cc2sn1Cc1ccccc1` ?
Response: 18.3

Request: What do you have for `CN=c1scc(-c2cccs2)n1/N=C/c1ccccc1O` ?
Response: -0.73

Request: What do you have for COc1ccc2cc(C3(C)NC(=O)N(CC(=O)NCCC4=CCCCC4)C3=O)ccc2c1 (configuration not stated) ?
Response: -6.89
